These data points were gathered from ChEMBL document CHEMBL3797140.

# IC50 per record follows
tested on: L1210; assay: Phototoxicity against mouse L1210 cells assessed as cell viability preincubated for 1 hr followed by 1.05 J/cm2 UV-A irradiation measured after 48 hrs by MTT assay; assay type: functional, cell-based; conditions: L1210, light or radiation study
Respond with the bare value in nM.

Example cases with answers are listed next.
CCCCNC(=S)Nc1ccc2cc3ccc(NC(=S)NCCCC)cc3nc2c1	520
CCNC(=S)Nc1ccc2cc3ccc(NC(=S)NCC)cc3nc2c1	900
CCCCCNC(=S)Nc1ccc2cc3ccc(NC(=S)NCCCCC)cc3nc2c1	600

Now for another entry.
Give IC50 for "CCCNC(=S)Nc1ccc2cc3ccc(NC(=S)NCCC)cc3nc2c1.Cl" 480

----------
# IC50 at 48 h per record follows
assay: Dark toxicity against mouse L1210 cells assessed as cell viability after 48 hrs by MTT assay; format: cell-based
Respond with the bare value in µM.

CCCCCNC(=S)Nc1ccc2cc3ccc(NC(=S)NCCCCC)cc3nc2c1	9.2
CCNC(=S)Nc1ccc2cc3ccc(NC(=S)NCC)cc3nc2c1	12
CCCNC(=S)Nc1ccc2cc3ccc(NC(=S)NCCC)cc3nc2c1.Cl	5.7

Now for another entry.
Give IC50 at 48 h for "CCCCNC(=S)Nc1ccc2cc3ccc(NC(=S)NCCCC)cc3nc2c1" 6.6

----------
assay: Octanol-water partition coefficient, logP of the compound; assay type: physicochemical
Metric Name: logP
Give your answer as a number; write no unit.

Give logP for "CCCNC(=S)Nc1ccc2cc3ccc(NC(=S)NCCC)cc3nc2c1.Cl" 1.28

----------
assay: Dark toxicity against mouse NIH/3T3 cells assessed as cell viability after 48 hrs by MTT assay; type: cell-based, NIH3T3
# IC50 at 48 h per record follows
Respond with the bare value in µM.

CCCCCNC(=S)Nc1ccc2cc3ccc(NC(=S)NCCCCC)cc3nc2c1	37.5

Give IC50 at 48 h for "CCCNC(=S)Nc1ccc2cc3ccc(NC(=S)NCCC)cc3nc2c1.Cl" 43.5

Give IC50 at 48 h for "CCNC(=S)Nc1ccc2cc3ccc(NC(=S)NCC)cc3nc2c1" 40.2

Give IC50 at 48 h for "CCCCNC(=S)Nc1ccc2cc3ccc(NC(=S)NCCCC)cc3nc2c1" 32.7
